Assay: Transfer of coumarins from blood to CSF in sheep (third ventricle CSF, spectrophotometric)
Details: sheep CSF, iv infusion 50 mg/500 mL over 15 min, CSF not centrifuged
Readout name: Value (μg/mL) Without Centrifugation (average coumarin concentration in CSF)

# annotated cases, reported Value (μg/mL) Without Centrifugation (average coumarin concentration in CSF) shown
Compound | Result value
COc1ccc(CNC(=O)C(c2ccc(Br)cc2)N(C(=O)Cc2ccccc2)c2ccc3c(C)cc(=O)oc3c2)cc1 (stereo not drawn) | 30 (+/−5) μg/mL
CCOC(=O)CNC(=O)C(Nc1ccc2c(C(F)(F)F)cc(=O)oc2c1)c1ccccc1 (stereo not drawn) | 350 (+/−5) μg/mL
CCOC(=O)CNC(=O)C(c1ccc(OC)cc1)N(C(=O)Cc1ccccc1)c1ccc2c(C)cc(=O)oc2c1 (stereo not drawn) | 5 (+/−5) μg/mL
COc1ccc(CNC(=O)C(c2ccccc2)N(C(=O)CCCC(=O)O)c2ccc3c(C)cc(=O)oc3c2)cc1 (stereo not drawn) | 2.5 (+/−5) μg/mL
COc1ccc(CNC(=O)C(c2ccc(OC)cc2)N(C(=O)CCCC(=O)O)c2ccc3c(C)cc(=O)oc3c2)cc1 (stereo not drawn) | 10 (+/−5) μg/mL

Let's switch to this compound now.
Consider the compound shown here: "Cc1cc(=O)oc2cc(/N=C/c3ccccc3)ccc12" What is its recorded Value (μg/mL) Without Centrifugation (average coumarin concentration in CSF)?
8 (+/−5) μg/mL

---

Listed here are compounds together with their documented viability at 24 h, 0.5 µg/mL.
Test: MTT cytotoxicity assay
Details: mouse, αT3-1 pituitary gonadotrope cells, cell viability, αT3-1, 0.5 µg/mL, 24 h, MTT

# annotated cases, reported viability at 24 h, 0.5 µg/mL shown
Compound | viability at 24 h, 0.5 µg/mL
Cc1cc(=O)oc2cc(/N=C/c3ccccc3)ccc12 | > 96%
CCOC(=O)CNC(=O)C(c1ccc(OC)cc1)N(C(=O)Cc1ccccc1)c1ccc2c(C)cc(=O)oc2c1 (stereo not drawn) | > 96%

Consider the compound shown here: COc1ccc(CNC(=O)C(c2ccccc2)N(C(=O)CCCC(=O)O)c2ccc3c(C)cc(=O)oc3c2)cc1 (stereo not drawn) What is its recorded viability at 24 h, 0.5 µg/mL?
> 96%
